Catalogue of Kd values
Target: T1, (ABI3-5Sup-ZF)x2 (Arabidopsis thaliana, UniProt F4JCU0 379-406)
T1 chain: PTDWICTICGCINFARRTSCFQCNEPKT
Assay: BLI; ITC: 50 mM Tris pH 7.5, 150 mM NaCl, 1 mM DTT, 0.1 mM ZnCl2, 25 °C; BLI: 50 mM Tris pH 7.5, 150 mM NaCl, 1 mM DTT, 0.1% BSA, 0.02% Tween, 30 °C
Details: protein: recombinant; tags: GST cleaved (HRV-3C); label: 5' biotin
// units = nM; emit number, no label

Record summary for AAAGGUGGUAAA (ssRNA) [(GGU)x2 biotin] : reported Kd = 1000

Kd for AAAGGGGGGAAA (ssRNA) [(GGG)x2 biotin] is 3000

The recorded Kd for entry AAAGGAGGAAAA (ssRNA) [(GGA)x2 biotin] equals 2600
